The reported numbers originate from PubChem BioAssay AID1159580.

- test_name: chemical genetic growth profiling, strain panel (AID 1159580);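 further: tested at 20 µM; growth read once vehicle control cultures reached saturation at 30 °C; 1 = growth at the plate median or of vehicle wells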
- conditions_used: S. cerevisiae deletion strains, growth OD, locus YNL248C, strain rpa49, stronger effect = lower value
Hit rate of the full screen: of about 5,500 compounds, about 2,000 (36%) were called active. About 18% were inconclusive and are not listed. Some of the results follow.

{"columns": ["compound", "normalized growth"],
 "data": [
  ["O=C(O)CC[N+](=O)[O-]", 0.996],
  ["CCC1(C2=NCCN2)Cc2ccccc2O1 (centres undefined)", 1],
  ["COc1ccc(NS(=O)(=O)c2ccc(N)cc2)nn1", 0.994],
  ["CCC[C@@H]1C[C@@H](C(=O)N[C@H]([C@H]2O[C@H](SC)[C@H](O)[C@@H](O)[C@H]2O)[C@H](C)O)N(C)C1", 1.02],
  ["CC(NC(C)(C)C)C(=O)c1cccc(Cl)c1 (centres undefined)", 0.992],
  ["CC[C@H]1OC(=O)[C@H](C)[C@@H](O[C@H]2C[C@@](C)(OC)[C@@H](O)[C@H](C)O2)[C@H](C)[C@@H](O[C@@H]2O[C@H](C)C[C@H](N(C)C)[C@H]2O)[C@](C)(O)C[C@@H](C)/C(=N/OCOCCOC)[C@H](C)[C@@H](O)[C@]1(C)O", 1.03],
  ["CC1=C(C(=O)O)N2C(=O)[C@@H](NC(=O)[C@@H](N)c3ccc(O)cc3)[C@H]2SC1", 1.04],
  ["CC(C)[C@@H]1CC[C@@H](C)CC1=O", 0.997],
  ["NC(Cc1ccc(Cl)cc1)C(=O)O (centres undefined)", 1.01]
]}

###

- test_name: chemical genetic growth profiling, strain panel (AID 1159580);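 further: tested at 20 µM; growth read once vehicle control cultures reached saturation at 30 °C; 1 = growth at the plate median or of vehicle wells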
- conditions_used: S. cerevisiae deletion strains, growth OD, locus YCL016C, strain dcc1
The whole screen tested about 5,500 compounds, of which about 2,000 (36%) were called active. Another 18% or so got no clear call; they are omitted. No stated cut-off is given here; in the data, active means normalized growth mostly below about 0.91 (no sharp cut-off); inconclusive means no clear call, values can overlap the other calls; inactive means mostly above about 0.92. The list shows a part of the results.
Labels: active, inactive

{"columns": ["molecule", "assigned_label"],
 "data": [
  ["CN1CCCCC1c1ccc(-c2cccnc2)nc1 (stereo not drawn)", "inactive"],
  ["CC(C)C1CCC(C(=O)N[C@@H](Cc2ccccc2)C(=O)O)CC1 (stereo partly drawn)", "inactive"],
  ["CNC(=O)N(C)c1nnc(C(C)(C)C)s1", "inactive"],
  ["OC[C@H]1O[C@@H](Oc2ccc(O)cc2)[C@H](O)[C@@H](O)[C@@H]1O", "inactive"],
  ["CC(C)c1cc2c(c(O)c1O)[C@@]1(C(=O)O)CCCC(C)(C)C1CC2 (stereo partly drawn)", "active"],
  ["Cn1c(=O)c2c(ncn2C)n(C)c1=O", "inactive"],
  ["Cn1c(=O)c2c(ncn2CCO)n(C)c1=O", "inactive"],
  ["COc1ccccc1OCC(O)COC(N)=O (stereo not drawn)", "inactive"],
  ["CC(=O)OC[C@@]1(O)C[C@@]23CCC4c5ccoc5CC[C@]4(C)C2CC[C@@H]1C3 (stereo partly drawn)", "inactive"],
  ["Cn1cnc2c1c(=O)[nH]c(=O)n2C", "inactive"],
  ["O=C(/C=C/c1ccc(O)cc1)c1ccccc1O", "active"],
  ["Cn1c(=O)[nH]c2ncn(C)c2c1=O", "inactive"],
  ["Cn1c(=O)[nH]c2nc[nH]c2c1=O", "inactive"]
]}
